The values you see were collected from ChEMBL document CHEMBL1138933.

biological target: 5-hydroxytryptamine receptor 1A (Homo sapiens, UniProt P08908)
Sequence (P08908 whole entry): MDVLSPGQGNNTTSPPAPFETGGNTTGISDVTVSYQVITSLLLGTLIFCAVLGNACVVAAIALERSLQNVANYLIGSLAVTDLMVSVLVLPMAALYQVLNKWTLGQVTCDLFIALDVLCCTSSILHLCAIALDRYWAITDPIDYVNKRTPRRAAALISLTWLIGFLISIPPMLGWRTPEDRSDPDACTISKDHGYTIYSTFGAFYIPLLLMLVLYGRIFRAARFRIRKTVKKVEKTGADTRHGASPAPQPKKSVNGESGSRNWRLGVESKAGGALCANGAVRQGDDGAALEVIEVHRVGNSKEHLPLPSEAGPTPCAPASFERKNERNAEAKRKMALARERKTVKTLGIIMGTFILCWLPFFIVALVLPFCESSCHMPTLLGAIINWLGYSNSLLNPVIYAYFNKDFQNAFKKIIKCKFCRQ
quantity.name: Ki (nM)

compound: CCN(CCc1c[nH]c2ccc(F)cc12)C1COc2c(F)ccc(C(N)=O)c2C1 (racemic)
readout.unit: nM
val: 33.2

A = NC(=O)c1ccc(F)c2c1CC(N(CCc1c[nH]c3ccc(F)cc13)CC1CC1)CO2 (racemic)
B = CCCN(CCCc1c[nH]c2ccc(F)cc12)C1COc2c(F)ccc(C(N)=O)c2C1 (racemic)
C = NC(=O)c1ccc(F)c2c1C[C@@H](NCCCc1c[nH]c3ccc(F)cc13)CO2
D = CN(CCCc1c[nH]c2ccc(F)cc12)[C@H]1COc2c(F)ccc(C(N)=O)c2C1
Sort low-to-high on Ki, please. Answer format: the labels, ordered as requested.
B, A, C, D
(B: 3.5 nM, A: 7.3 nM, C: 45.2 nM, D: 266 nM)

###

List of pIC50 tested on Sodium-dependent serotonin transporter (Homo sapiens, UniProt P31645).
Sequence (P31645 whole entry): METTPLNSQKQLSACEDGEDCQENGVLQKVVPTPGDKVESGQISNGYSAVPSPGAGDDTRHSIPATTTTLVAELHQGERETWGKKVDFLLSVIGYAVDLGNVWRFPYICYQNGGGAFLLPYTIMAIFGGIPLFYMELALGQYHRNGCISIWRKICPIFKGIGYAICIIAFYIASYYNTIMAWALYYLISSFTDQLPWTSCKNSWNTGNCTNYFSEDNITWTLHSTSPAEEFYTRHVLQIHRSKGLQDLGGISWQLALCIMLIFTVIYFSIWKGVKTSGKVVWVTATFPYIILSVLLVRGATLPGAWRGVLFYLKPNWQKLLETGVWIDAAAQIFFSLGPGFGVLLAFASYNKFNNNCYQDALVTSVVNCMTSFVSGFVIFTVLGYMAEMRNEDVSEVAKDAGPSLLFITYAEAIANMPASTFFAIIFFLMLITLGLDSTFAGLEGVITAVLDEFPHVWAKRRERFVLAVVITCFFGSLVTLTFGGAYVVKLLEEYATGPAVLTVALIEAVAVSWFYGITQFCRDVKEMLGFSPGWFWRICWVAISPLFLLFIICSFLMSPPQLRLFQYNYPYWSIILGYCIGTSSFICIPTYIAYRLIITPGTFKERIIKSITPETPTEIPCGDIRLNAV
pIC50: −log10 of the molar value.
quantity.name: pIC50

compound: NC(=O)c1ccc(F)c2c1CC(N(CCCc1c[nH]c3ccc(F)cc13)CC1CC1)CO2 (racemic)
pIC50: 7.27

A = NC(=O)c1ccc(F)c2c1CC(N(CCCCc1c[nH]c3ccc(F)cc13)CC1CC1)CO2 (racemic)
B = COc1cccc2c1CC(N(C)CCCc1c[nH]c3ccc(F)cc13)CO2 (racemic)
Compare the recorded pIC50 of A and B ; state which is larger. # respond with the chosen item's label
B
(B: 7.82, A: 7.08)

###

List of IC50 tested on Sodium-dependent serotonin transporter (Homo sapiens).
quantity.name: IC50 (nM)

compound: COc1cccc2c1C[C@@H](N(CCCc1c[nH]c3ccc(F)cc13)C1CCC1)CO2
quantity.name: IC50
val: 732

I = COc1cccc2c1CC(N(CCCc1c[nH]c3ccc(F)cc13)C1CCC1)CO2 (racemic)
II = COc1cccc2c1CC(N(CCCc1c[nH]c3ccc(F)cc13)CC1CC1)CO2 (racemic)
III = NC(=O)c1ccc(F)c2c1C[C@@H](NCCCc1c[nH]c3ccc(F)cc13)CO2
Returns the items ordered by IC50, from maximum to minimum. Answer format: the labels, ordered as requested.
I, III, II

###

Target: Adrenergic receptor alpha-1 (Rattus norvegicus, UniProt P15823+P23944+P43140)
Sequence (P15823 whole entry): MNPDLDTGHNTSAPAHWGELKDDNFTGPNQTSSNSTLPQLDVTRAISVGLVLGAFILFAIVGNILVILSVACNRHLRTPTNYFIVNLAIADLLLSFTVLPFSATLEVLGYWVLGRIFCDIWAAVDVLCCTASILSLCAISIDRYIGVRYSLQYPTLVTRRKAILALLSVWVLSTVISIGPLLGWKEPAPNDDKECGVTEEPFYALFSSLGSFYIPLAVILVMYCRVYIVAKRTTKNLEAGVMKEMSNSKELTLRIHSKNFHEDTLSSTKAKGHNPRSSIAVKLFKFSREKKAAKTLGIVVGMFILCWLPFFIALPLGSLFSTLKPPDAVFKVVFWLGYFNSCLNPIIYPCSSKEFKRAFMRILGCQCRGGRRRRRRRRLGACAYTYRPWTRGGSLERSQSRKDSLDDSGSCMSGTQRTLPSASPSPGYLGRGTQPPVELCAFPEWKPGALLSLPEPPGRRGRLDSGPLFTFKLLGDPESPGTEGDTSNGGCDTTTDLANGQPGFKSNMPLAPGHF
Sequence (P23944 whole entry): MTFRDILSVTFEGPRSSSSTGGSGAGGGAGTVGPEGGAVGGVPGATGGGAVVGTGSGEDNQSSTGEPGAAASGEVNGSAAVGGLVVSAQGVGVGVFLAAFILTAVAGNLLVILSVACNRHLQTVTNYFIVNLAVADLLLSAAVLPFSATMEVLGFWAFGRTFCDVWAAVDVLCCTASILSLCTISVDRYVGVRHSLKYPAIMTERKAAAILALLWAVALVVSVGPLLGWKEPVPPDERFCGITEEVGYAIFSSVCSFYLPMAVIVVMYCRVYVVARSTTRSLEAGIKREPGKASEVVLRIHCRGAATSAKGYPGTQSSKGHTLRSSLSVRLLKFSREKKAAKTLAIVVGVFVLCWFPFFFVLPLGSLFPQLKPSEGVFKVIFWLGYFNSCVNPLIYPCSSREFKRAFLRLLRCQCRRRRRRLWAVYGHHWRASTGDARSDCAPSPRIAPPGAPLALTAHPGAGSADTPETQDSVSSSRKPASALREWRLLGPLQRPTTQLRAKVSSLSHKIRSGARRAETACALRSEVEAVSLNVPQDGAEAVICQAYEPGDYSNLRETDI
Sequence (P43140 whole entry): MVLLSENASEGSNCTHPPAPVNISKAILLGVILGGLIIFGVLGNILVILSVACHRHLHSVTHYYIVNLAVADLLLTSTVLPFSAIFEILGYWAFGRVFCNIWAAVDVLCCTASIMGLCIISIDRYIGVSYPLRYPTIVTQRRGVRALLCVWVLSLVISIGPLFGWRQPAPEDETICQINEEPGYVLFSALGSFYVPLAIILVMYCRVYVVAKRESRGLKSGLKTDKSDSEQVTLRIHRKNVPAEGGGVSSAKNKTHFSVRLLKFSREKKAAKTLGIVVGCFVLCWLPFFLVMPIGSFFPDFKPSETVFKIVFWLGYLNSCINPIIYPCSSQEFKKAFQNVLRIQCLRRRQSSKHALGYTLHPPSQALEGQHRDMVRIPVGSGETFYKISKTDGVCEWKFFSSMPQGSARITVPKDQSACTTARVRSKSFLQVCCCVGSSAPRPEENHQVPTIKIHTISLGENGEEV
Assay: Displacement of [3H]prazosin from alpha-1 adrenergic receptor in Sprague-Dawley rat cortical membranes
Format: cell membranes, Membrane
quantity.name: Ki (nM)

molecule: CCN(CCCc1c[nH]c2ccc(F)cc12)[C@H]1COc2c(F)ccc(C(N)=O)c2C1
val: 640

A = NC(=O)c1ccc(F)c2c1CC(N(CCCCc1c[nH]c3ccc(F)cc13)C1CCC1)CO2 (racemic)
B = NC(=O)c1ccc(F)c2c1C[C@@H](N(CCCc1c[nH]c3ccc(F)cc13)CC1CC1)CO2
Returns: the label, A or B , whose recorded Ki is the lower number. # respond with the chosen item's label
A
